# System: MOLT-4
# testMethodNotes: Antitumor activity against human MOLT4 cells by trypan blue exclusion assay
# Format: functional, cell-based
readoutType: IC50 (nM)

INSERT INTO assay_data (itemsmiles, readouttype, measurednumber) VALUES
  ('COc1ccc(CS(=O)(=O)/C=C/c2c(OC)cc(OC)cc2OC)cc1', 'IC50', 9),
  ('COc1cc(OC)c(/C=C/S(=O)(=O)Cc2ccc(OC)c(O)c2)c(OC)c1', 'IC50', 5);

###

# System: DLD-1
# testMethodNotes: Antitumor activity against human DLD1 cells by trypan blue exclusion assay
# Type: functional, cell-based
pIC50: −log10 of the molar value.
readoutType: pIC50

INSERT INTO assay_data (itemsmiles, result) VALUES
  ('COc1ccc(CS(=O)(=O)/C=C/c2c(OC)cc(OC)cc2OC)cc1', 7.40),
  ('COc1ccc(CS(=O)(=O)/C=C/c2c(OC)cc(O)cc2OC)cc1', '< 4.70'),
  ('COc1ccc(CS(=O)(=O)/C=C/c2ccc(N)cc2)cc1', '< 4.70');

###

# Test system: DLD-1
# testMethodNotes: Antitumor activity against human DLD1 cells by trypan blue exclusion assay
# Format: functional, cell-based
pIC50: −log10 of the molar value.
readoutType: pIC50

INSERT INTO assay_data (itemsmiles, readouttype, valueoperator, measurednumber) VALUES
  ('COc1ccc(CS(=O)(=O)/C=C/c2ccc(OC)c(OC)c2OC)cc1', 'pIC50', '<', 4.70),
  ('COc1ccc(CS(=O)(=O)/C=C/c2cc(OC)cc(OC)c2)cc1', 'pIC50', '<', 4.70),
  ('COc1ccc(CS(=O)(=O)/C=C/c2cc(C)cc(C)c2)cc1', 'pIC50', '<', 4.70),
  ('COc1cc(OC)c(/C=C/S(=O)(=O)Cc2cc(OC)c(OC)c(OC)c2)c(OC)c1', 'pIC50', '<', 4.70),
  ('COc1ccc(CS(=O)(=O)/C=C/c2ccc(OC)cc2OC)cc1', 'pIC50', '<', 4.70),
  ('COc1cc(OC)c(/C=C/S(=O)(=O)Cc2ccc(OC)c(O)c2)c(OC)c1', 'pIC50', '=', 8.52),
  ('COc1cc(OC)c(/C=C/S(=O)(=O)Cc2ccc(O)cc2)c(OC)c1', 'pIC50', '=', 4.70),
  ('COc1ccc(CS(=O)(=O)/C=C/c2ccc([N+](=O)[O-])cc2)cc1', 'pIC50', '=', 5.30),
  ('COc1cc(OC)c(/C=C/S(=O)(=O)Cc2ccc([N+](=O)[O-])cc2)c(OC)c1', 'pIC50', '=', 4.82),
  ('COc1ccc(CS(=O)(=O)/C=C/c2ccc(F)cc2)cc1', 'pIC50', '=', 5.70),
  ('COc1ccc(CS(=O)(=O)/C=C/c2c(C)cccc2C)cc1', 'pIC50', '<', 4.70),
  ('COc1ccc(CS(=O)(=O)/C=C/c2ccc(OC)c(OC)c2)cc1', 'pIC50', '<', 4.70),
  ('COc1ccc(CS(=O)(=O)/C=C/c2c(C)cc(C)cc2C)cc1', 'pIC50', '<', 4.70),
  ('COc1ccc(CS(=O)(=O)/C=C/c2ccccc2OC)cc1', 'pIC50', '=', 5.12);
